# target: Probable G-protein coupled receptor 139 (Homo sapiens, UniProt Q6DWJ6)
# protocol: Agonist activity at human GPR139 expressed in CHO-K1 cells assessed as induction of beta-arrestin 2 recruitment incubated for 90 mins by PathHunter assay
# Assay type: cell-based
pEC50: −log10 of the molar value.
pEC50 values for the compounds below.

Some solved cases for reference:
| compound | pEC50 |
| --- | --- |
| C[C@H](NC(=O)Cn1nc2cc(OC3CN(C)C3)ccn2c1=O)c1ccc(OC(F)(F)F)cc1 | ≤ 7.00 |
| C[C@H](NC(=O)Cn1nc2cc(N3CCCCC3)ccn2c1=O)c1ccc(OC(F)(F)F)cc1 | ≤ 7.00 |

// lookup pEC50 | system=Probable G-protein coupled receptor 139 (Homo sapiens, UniProt Q6DWJ6) | key= `Cc1ccc([C@H](C)NC(=O)Cn2nc3cccnn3c2=O)cc1` ≤ 7.00

What reported pEC50 corresponds to `Cc1ccc([C@H](C)NC(=O)Cn2nc3cccnn3c2=O)cc1Cl` on Probable G-protein coupled receptor 139 (Homo sapiens, UniProt Q6DWJ6)? ≤ 7.00

Query pEC50 on Probable G-protein coupled receptor 139 (Homo sapiens, UniProt Q6DWJ6) for `C[C@@H](NC(=O)Cn1nc2ccccn2c1=O)c1ccc(Cl)c(F)c1` ≤ 7.00

What reported pEC50 corresponds to `C[C@H](NC(=O)Cn1nc2cc(N3CCC[C@H](O)C3)ccn2c1=O)c1ccc(OC(F)(F)F)cc1` on Probable G-protein coupled receptor 139 (Homo sapiens, UniProt Q6DWJ6)? ≤ 7.00

Short answer please: pEC50, Probable G-protein coupled receptor 139 (Homo sapiens, UniProt Q6DWJ6), entry `COc1ccc2nn(CC(=O)N[C@@H](C)c3ccc(OC(F)(F)F)cc3)c(=O)n2c1` > 9.00

Please tell me: pEC50 of Cc1ccc([C@H](C)NC(=O)Cn2nc3c(C4CCN(C)C4)cccn3c2=O)cc1 (stereo partly specified) , system Probable G-protein coupled receptor 139 (Homo sapiens, UniProt Q6DWJ6)? ≤ 7.00

Reported pEC50 for Probable G-protein coupled receptor 139 (Homo sapiens, UniProt Q6DWJ6), given `COC1CCN(c2ccn3c(=O)n(CC(=O)N[C@@H](C)c4ccc(OC(F)(F)F)cc4)nc3c2)CC1` ? ≤ 7.00

Please provide the recorded pEC50 for `C[C@H](NC(=O)Cn1nc2cccnn2c1=O)c1ccc(C2CC2)c(F)c1` , tested on Probable G-protein coupled receptor 139 (Homo sapiens, UniProt Q6DWJ6). ≤ 7.00

Request: pEC50, test system Probable G-protein coupled receptor 139 (Homo sapiens, UniProt Q6DWJ6), entry `C[C@H](NC(=O)Cn1nc2cc(Cl)cnn2c1=O)c1ccc(OC(F)(F)F)cc1` ≤ 7.00

Test system Probable G-protein coupled receptor 139 (Homo sapiens, UniProt Q6DWJ6); read-out pEC50; what value for `C[C@H](NC(=O)Cn1nc2ccccn2c1=O)c1ccc(F)cc1` ? ≤ 7.00

Give Probable G-protein coupled receptor 139 (Homo sapiens, UniProt Q6DWJ6) pEC50 for `C[C@H](NC(=O)Cn1nc2c(C(F)F)nccn2c1=O)c1ccc(OC(F)(F)F)cc1` > 9.00

Item `C[C@H](NC(=O)Cn1nc2cc(-c3ccccc3)ccn2c1=O)c1ccc(Cl)c(F)c1` with Probable G-protein coupled receptor 139 (Homo sapiens, UniProt Q6DWJ6) - pEC50? > 9.00

Return pEC50 measured with Probable G-protein coupled receptor 139 (Homo sapiens, UniProt Q6DWJ6) given this compound: `C[C@H](NC(=O)Cn1nc2cc(Cl)ccn2c1=O)c1ccc(OC(F)(F)F)cc1` > 9.00

Can you look up pEC50 on Probable G-protein coupled receptor 139 (Homo sapiens, UniProt Q6DWJ6) for CC(NC(=O)Cn1nc2ccccn2c1=O)c1ncc(Cl)cc1F (stereo unspecified) ? ≤ 7.00

# query: pEC50 | item `Cc1cnn2c(=O)n(CC(=O)N[C@@H](C)c3ccc(Cl)c(F)c3)nc2c1C` | system: Probable G-protein coupled receptor 139 (Homo sapiens, UniProt Q6DWJ6) > 9.00

Hello, I am looking for reported pEC50 with Probable G-protein coupled receptor 139 (Homo sapiens, UniProt Q6DWJ6) for `C[C@H](NC(=O)Cn1nc2cc(N3CCOCC3)ccn2c1=O)c1ccc(OC(F)(F)F)cc1` . Could you help? ≤ 7.00

// lookup pEC50 | system=Probable G-protein coupled receptor 139 (Homo sapiens, UniProt Q6DWJ6) | key= `Cc1cnc2nn(CC(=O)N[C@@H](C)c3ccc(OC(F)(F)F)cc3)c(=O)n2c1` ≤ 7.00

What measured pEC50 is associated with `C[C@H](NC(=O)Cn1nc2ccccn2c1=O)c1cnc(C(F)(F)F)nc1` on Probable G-protein coupled receptor 139 (Homo sapiens, UniProt Q6DWJ6)? ≤ 7.00

What value of pEC50 on Probable G-protein coupled receptor 139 (Homo sapiens, UniProt Q6DWJ6) does `C[C@H](NC(=O)Cn1nc2cc(N3CCC(O)CC3)ccn2c1=O)c1ccc(OC(F)(F)F)cc1` have? ≤ 7.00

Request: pEC50, test system Probable G-protein coupled receptor 139 (Homo sapiens, UniProt Q6DWJ6), entry `Cc1cc(Cl)ccc1[C@H](C)NC(=O)Cn1nc2cccnn2c1=O` ≤ 7.00

Missing value: pEC50, Probable G-protein coupled receptor 139 (Homo sapiens, UniProt Q6DWJ6), entry `C[C@H](NC(=O)Cn1nc2cc(N3CCOCC3)cnn2c1=O)c1ccc(Cl)c(F)c1` . Fill in? ≤ 7.00

// fetch Probable G-protein coupled receptor 139 (Homo sapiens, UniProt Q6DWJ6) pEC50 for `Cc1ccc([C@H](C)NC(=O)Cn2nc3c(NCC(F)F)cccn3c2=O)cc1` > 9.00

----------
# target: Probable G-protein coupled receptor 139 (Homo sapiens, UniProt Q6DWJ6)
# Sequence (Q6DWJ6 whole entry): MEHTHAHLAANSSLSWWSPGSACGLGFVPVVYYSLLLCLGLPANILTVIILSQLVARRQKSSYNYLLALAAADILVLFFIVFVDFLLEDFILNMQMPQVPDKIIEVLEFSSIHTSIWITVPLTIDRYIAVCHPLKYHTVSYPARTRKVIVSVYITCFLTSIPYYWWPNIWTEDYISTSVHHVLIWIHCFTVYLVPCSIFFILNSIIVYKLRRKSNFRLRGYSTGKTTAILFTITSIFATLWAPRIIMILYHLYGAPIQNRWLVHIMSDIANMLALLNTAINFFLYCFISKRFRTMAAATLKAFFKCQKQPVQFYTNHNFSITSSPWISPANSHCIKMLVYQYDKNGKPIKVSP
# protocol: Agonist activity at human GPR139 expressed in CHO-K1 cells assessed as induction of beta-arrestin 2 recruitment incubated for 90 mins by PathHunter assay
# Assay type: cell-based
pEC50: −log10 of the molar value.
measurement kind: pEC50

Answered examples (5):
| line notation | result |
| --- | --- |
| COc1ccn2c(=O)n(CC(=O)N[C@@H](C)c3ccc(OC(F)(F)F)cc3)nc2n1 | > 9.00 |
| C[C@H](NC(=O)Cn1nc2c(OC3CN(C)C3)nccn2c1=O)c1ccc(Cl)c(F)c1 | ≤ 7.00 |
| C[C@H](NC(=O)Cn1nc2c(N3CCOCC3)ccnn2c1=O)c1ccc(Cl)c(F)c1 | ≤ 7.00 |
| COc1nc2nn(CC(=O)N[C@@H](C)c3ccc(Cl)c(F)c3)c(=O)n2cc1C | > 9.00 |
| O=C(Cn1nc2cccnn2c1=O)NC1(c2ccc(Cl)cc2)CC1 | ≤ 7.00 |

Quick check: pEC50 of `O=C(Cn1nc2ccc(F)cn2c1=O)NC1(c2ccc(Cl)cc2)CC1` ? ≤ 7.00

Entry under review: `O=C(Cn1nc2ccc(F)cn2c1=O)NC1(c2cccc(Cl)c2)CC1` . Reported pEC50? ≤ 7.00
